- STUDY TARGET: DNA oxidative demethylase ALKBH2 (Homo sapiens, UniProt Q6NS38)
- Sequence (Q6NS38 whole entry, the tested form may be a part): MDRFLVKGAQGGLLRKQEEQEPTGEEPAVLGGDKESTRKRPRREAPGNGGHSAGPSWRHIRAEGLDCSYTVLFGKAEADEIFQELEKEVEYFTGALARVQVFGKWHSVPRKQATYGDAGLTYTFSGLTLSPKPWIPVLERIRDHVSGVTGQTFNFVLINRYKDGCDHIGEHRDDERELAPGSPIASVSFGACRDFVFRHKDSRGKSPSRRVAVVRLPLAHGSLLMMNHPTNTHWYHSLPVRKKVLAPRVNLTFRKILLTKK
- TEST SUMMARY: Inhibition of demethylase activity of ALKBH2 (56 to 261 residues)(unknown origin) extracted from Escherichia coli BL21 (DE3) using 1meA dsDNA as substrate incubated for 30 mins in presence of alpha-KG by methylation-sensitive restriction enzyme digestion assay
QUANTITY MEASURED: IC50 (nM)
The reply should be a number in nM, with the unit left off.

State the recorded IC50 for this entry: CC(C)(C)C(NC(=O)c1ccc(-n2cc(C(=O)O)cn2)nc1)c1ccccc1 (stereo unspecified)
1480

###

- STUDY TARGET: DNA oxidative demethylase ALKBH2 (Homo sapiens)
- TEST SUMMARY: Inhibition of ALKBH2 (56 to 261 residues)(unknown origin) extracted from Escherichia coli BL21 (DE3) using 5'-GAAGACCT(1meA)GGCGTCC-3'/5'- CTGGGACGCCTAGGTCTTCACTG-3' as substrate incubated for 30 mins by FP assay
So I've got a bunch of compounds here, and I need their pIC50 values.
pIC50 field: float, defined as -log10 of concentration (mol/L).

State the recorded pIC50 for this entry: O=C(O)c1cnn(-c2ccccc2)c1
4.06

State the recorded pIC50 for this entry: O=C(O)c1cnn(-c2ccc(C(=O)N3CCCC(c4ccccc4)C3)cn2)c1 (centres undefined)
7.14

State the recorded pIC50 for this entry: CC(C)(C)C(NC(=O)c1ccc(-n2cc(C(=O)O)cn2)nc1)c1ccccc1 (centres undefined)
7.51

State the recorded pIC50 for this entry: COC1CCN(C(=O)c2ccc(-n3cc(C(=O)O)cn3)nc2)C1 (centres undefined)
6.42

###

QUANTITY MEASURED: IC50

Value wanted: IC50 (UniProt Q9C0B1) of entry CC(C)(C)C(NC(=O)c1ccc(-n2cc(C(=O)O)cn2)nc1)c1ccccc1 (stereo unspecified)
Sequence (Q9C0B1 whole entry): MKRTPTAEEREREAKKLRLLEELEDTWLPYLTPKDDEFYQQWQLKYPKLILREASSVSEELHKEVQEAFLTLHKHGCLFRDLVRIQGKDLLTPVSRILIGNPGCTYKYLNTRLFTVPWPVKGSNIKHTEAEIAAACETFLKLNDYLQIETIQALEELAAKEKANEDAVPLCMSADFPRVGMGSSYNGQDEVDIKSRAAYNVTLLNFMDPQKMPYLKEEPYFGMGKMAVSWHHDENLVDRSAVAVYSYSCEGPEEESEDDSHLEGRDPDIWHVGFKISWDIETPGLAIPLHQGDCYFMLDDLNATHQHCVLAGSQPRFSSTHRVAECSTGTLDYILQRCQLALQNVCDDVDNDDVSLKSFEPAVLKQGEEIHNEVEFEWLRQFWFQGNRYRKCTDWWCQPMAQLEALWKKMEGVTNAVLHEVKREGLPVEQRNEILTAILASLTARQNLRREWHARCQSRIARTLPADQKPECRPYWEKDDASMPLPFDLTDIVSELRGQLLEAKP
> 200 µM

###

- STUDY TARGET: RNA demethylase ALKBH5 (Homo sapiens)
- Sequence (Q6P6C2 whole entry): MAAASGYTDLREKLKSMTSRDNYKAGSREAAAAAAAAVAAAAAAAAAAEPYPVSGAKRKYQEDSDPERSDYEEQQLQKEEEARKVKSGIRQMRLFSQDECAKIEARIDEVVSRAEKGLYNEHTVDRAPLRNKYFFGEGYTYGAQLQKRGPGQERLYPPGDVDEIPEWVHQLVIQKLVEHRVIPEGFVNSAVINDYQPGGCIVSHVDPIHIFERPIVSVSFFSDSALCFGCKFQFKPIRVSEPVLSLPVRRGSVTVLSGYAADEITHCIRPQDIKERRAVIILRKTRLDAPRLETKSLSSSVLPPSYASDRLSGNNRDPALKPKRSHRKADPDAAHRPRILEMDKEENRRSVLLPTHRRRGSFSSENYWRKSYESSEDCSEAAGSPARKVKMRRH
QUANTITY MEASURED: IC50

State the recorded IC50 for this entry: CC(C)(C)C(NC(=O)c1ccc(-n2cc(C(=O)O)cn2)nc1)c1ccccc1 (stereo unspecified)
> 200 µM
